Target: CXC chemokine receptor 4 (CXCR4) (Homo sapiens)
Sequence (P61073 whole entry): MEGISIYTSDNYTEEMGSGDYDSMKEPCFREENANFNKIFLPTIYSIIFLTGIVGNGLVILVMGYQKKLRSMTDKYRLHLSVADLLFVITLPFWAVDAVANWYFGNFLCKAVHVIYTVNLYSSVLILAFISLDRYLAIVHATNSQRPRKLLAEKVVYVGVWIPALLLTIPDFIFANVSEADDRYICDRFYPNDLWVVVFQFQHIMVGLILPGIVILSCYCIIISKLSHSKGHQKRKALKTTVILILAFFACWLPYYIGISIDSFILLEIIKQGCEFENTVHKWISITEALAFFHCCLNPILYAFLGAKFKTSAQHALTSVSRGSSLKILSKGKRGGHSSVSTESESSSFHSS
Experiment: cell-based
pKi: −log10 of the molar value.
recorded-endpoint: pKi

| compound | observed |
| --- | --- |
| NCCc1c[nH]cn1 [HA, histamine] | ~4.58 |
